Hey, just so you know, these numbers are from PubChem BioAssay AID248.

system: L1210 leukemia ip in BDF1 mice, survival T/C; assay: NCI In Vivo Anticancer Drug Screen. Data for tumor model L1210 Leukemia (intraperitoneal) in B6D2F1 (BDF1) mice; details: endpoint: mean survival time; dose: 400.0 mg/kg/injection; schedule: Q01DX001 (ip); vehicle: carboxymethylcellulose (CMC); higher = longer survival
Inconclusive results and toxic doses are left out.
Measured Quantity: T/C

Consider the reported T/C for these compounds:
Req: Data request, read-out T/C, for OCCCc1cc(Cl)ccc1O
Resp: 92 % of control

Req: Entry under review: CCCN(CCC#N)CN1C(=O)c2ccccc2C1=O . Reported T/C?
Resp: 97 % of control

Req: What value of T/C has been reported for the following compound? Cc1ccc(NC(=O)Nc2ccc(C)cc2C)cc1
Resp: 92 % of control

Req: What does the record list as T/C for C[C@]12CC[C@H](O)C[C@H]1CC[C@@H]1[C@@H]2CC[C@]2(C)[C@@H](C3=CC(=O)OC3)[C@@H](O)C[C@]12O ?
Resp: 102 % of control

Req: Form field: reported T/C of CN(C)c1ccc(C(C#N)OC(=O)c2ccccc2)cc1 (stereo unspecified)
Resp: 91 % of control

# input for lookup
Req: # T/C lookup, item CC1CC(C)(C)S(=O)(=O)O1 (stereo unspecified)
Resp: 102 % of control
